Target: S100A4 (Homo sapiens, UniProt P26447)
Construct: made in house; host or cells: Escherichia coli BL21(DE3)
Sequence (P26447 whole entry): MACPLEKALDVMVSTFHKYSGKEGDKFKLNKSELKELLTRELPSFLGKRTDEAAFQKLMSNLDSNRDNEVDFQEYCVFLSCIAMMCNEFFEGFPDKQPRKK
Assay: Pull-down assay with immobilized protein and LSM libraries
Type: binding
Conditions: H14 library; 1:1 binding assumed; read-out: Surface mapping KD (apparent)
MEASURE_NAME: pKd
// pKd is dimensionless: -log10 of concentration (M)

SMILES_DATA	TARGET_OR_SYSTEM	pKd
N=C(N)NCCC[C@@H](CC(=O)N[C@H]1CCCC[C@@H]1C(=O)N[C@H]1CCCC[C@@H]1C(=O)N[C@H](CC(=O)N[C@H]1CCCC[C@@H]1C(N)=O)Cc1ccccc1)NC(=O)[C@H]1CCCC[C@@H]1N	S100A4 (Homo sapiens, UniProt P26447)	4.19
CC(C)[C@@H](CC(=O)N[C@H]1CCCC[C@@H]1C(N)=O)NC(=O)[C@H]1CCCC[C@@H]1NC(=O)[C@H]1CCCC[C@@H]1NC(=O)C[C@@H](NC(=O)[C@H]1CCCC[C@@H]1N)C(C)C	S100A4 (Homo sapiens, UniProt P26447)	5.52
NC(=O)[C@H]1CCCC[C@@H]1NC(=O)C[C@H](Cc1c[nH]c2ccccc12)NC(=O)[C@H]1CCCC[C@@H]1NC(=O)[C@H]1CCCC[C@@H]1NC(=O)C[C@H](Cc1c[nH]c2ccccc12)NC(=O)[C@H]1CCCC[C@@H]1N	S100A4 (Homo sapiens, UniProt P26447)	4.64
NC(=O)CC[C@@H](CC(=O)N[C@H]1CCCC[C@@H]1C(N)=O)NC(=O)[C@H]1CCCC[C@@H]1NC(=O)[C@H]1CCCC[C@@H]1NC(=O)C[C@H](Cc1c[nH]c2ccccc12)NC(=O)[C@H]1CCCC[C@@H]1N	S100A4 (Homo sapiens, UniProt P26447)	3.72
CC[C@H](C)[C@@H](CC(=O)N[C@H]1CCCC[C@@H]1C(=O)N[C@H]1CCCC[C@@H]1C(=O)N[C@@H](CCCCN)CC(=O)N[C@H]1CCCC[C@@H]1C(N)=O)NC(=O)[C@H]1CCCC[C@@H]1N	S100A4 (Homo sapiens, UniProt P26447)	3.51
CSCC[C@@H](CC(=O)N[C@H]1CCCC[C@@H]1C(=O)N[C@H]1CCCC[C@@H]1C(=O)N[C@@H](CCCCN)CC(=O)N[C@H]1CCCC[C@@H]1C(N)=O)NC(=O)[C@H]1CCCC[C@@H]1N	S100A4 (Homo sapiens, UniProt P26447)	3.47
CC[C@H](C)[C@@H](CC(=O)N[C@H]1CCCC[C@@H]1C(N)=O)NC(=O)[C@H]1CCCC[C@@H]1NC(=O)[C@H]1CCCC[C@@H]1NC(=O)C[C@H](Cc1ccc(O)cc1)NC(=O)[C@H]1CCCC[C@@H]1N	S100A4 (Homo sapiens, UniProt P26447)	4.72
CC(C)[C@@H](CC(=O)N[C@H]1CCCC[C@@H]1C(=O)N[C@H]1CCCC[C@@H]1C(=O)N[C@H](CC(=O)N[C@H]1CCCC[C@@H]1C(N)=O)[C@@H](C)O)NC(=O)[C@H]1CCCC[C@@H]1N	S100A4 (Homo sapiens, UniProt P26447)	4.10

Entry C[C@@H](CC(=O)N[C@H]1CCCC[C@@H]1C(N)=O)NC(=O)[C@H]1CCCC[C@@H]1NC(=O)[C@H]1CCCC[C@@H]1NC(=O)C[C@H](Cc1ccccc1)NC(=O)[C@H]1CCCC[C@@H]1N : reported pKd = ?
4.24

Quick check: pKd of CC[C@H](C)[C@@H](CC(=O)N[C@H]1CCCC[C@@H]1C(N)=O)NC(=O)[C@H]1CCCC[C@@H]1NC(=O)[C@H]1CCCC[C@@H]1NC(=O)C[C@H](CCCNC(=N)N)NC(=O)[C@H]1CCCC[C@@H]1N ?
4.29

// returns reported pKd for input CSCC[C@@H](CC(=O)N[C@H]1CCCC[C@@H]1C(=O)N[C@H]1CCCC[C@@H]1C(=O)N[C@H](CC(=O)N[C@H]1CCCC[C@@H]1C(N)=O)Cc1ccccc1)NC(=O)[C@H]1CCCC[C@@H]1N
4.64

I would be grateful if you could share the reported pKd for C[C@@H](CC(=O)N[C@H]1CCCC[C@@H]1C(=O)N[C@H]1CCCC[C@@H]1C(=O)N[C@H](CC(=O)N[C@H]1CCCC[C@@H]1C(N)=O)[C@@H](C)O)NC(=O)[C@H]1CCCC[C@@H]1N .
3.45

Request the reported pKd associated with CSCC[C@@H](CC(=O)N[C@H]1CCCC[C@@H]1C(N)=O)NC(=O)[C@H]1CCCC[C@@H]1NC(=O)[C@H]1CCCC[C@@H]1NC(=O)C[C@H](C)NC(=O)[C@H]1CCCC[C@@H]1N
5.00

// provenance: paper PMC8162404
